Origin of measurements: ChEMBL document CHEMBL1138128

Biological target: Prothrombin (Homo sapiens, UniProt P00734)
Test: Inhibitory activity against thrombin
experimental-endpoint: IC50 (nM)

                            molecule_smiles  unit_label  recorded_value
0  COc1cccc(S(=O)(=O)Nc2ccc(C)c(CC(=O)NCc3ccc(C(=N)N)cc3)c2O)c1.Cl          nM              16

(1) Cc1ccc(NS(=O)(=O)c2cccc(C(F)(F)F)c2)c(O)c1CC(=O)NCc1ccc(C(=N)N)cc1.Cl
(2) Cc1ccc(NS(=O)(=O)c2cc(Cl)ccc2Cl)c(O)c1CC(=O)NCc1ccnc(N)c1.Cl
Exercise: Which shows the larger IC50 value: 1 or 2 ? Please indicate the selected item by its label.
Solution: 2
(2: 1000 nM, 1: 120 nM)
